Examples of compounds with documented TGI follow.
Test system: HL-60(TB) leukemia
Experiment: NCI tumour cell line growth inhibition, 48 h

Some entries whose results are on file:
{"Compound": "CC(=N\\N)/C(C)=N/N=C(C)/C(C)=N/N=C(C)/C(C)=N/N=C(C)/C(C)=N/N", "TGI": "> 100 µM"}
{"Compound": "COc1ccc(C2CC(c3cc(OC)c(OC)c(OC)c3)=NO2)cc1OCCCCOc1cc2c(cc1OC)C(=O)N1CCC[C@H]1C=N2 (stereo not given in full)", "TGI": "4.54 µM"}
{"Compound": "O=C(O)c1ccccc1NC(c1ccccc1)c1ccc2cccnc2c1O (stereo not given)", "TGI": "8.22 µM"}
{"Compound": "CCOC(=O)c1ccc2[nH]c(-c3ccc(S(=O)(=O)F)cc3)cc(=O)c2c1", "TGI": "> 100 µM"}
{"Compound": "COc1cccc(C2c3cc4c(cc3OC(C)(N3CCCC3)C2C)OCO4)c1OC (stereo not given)", "TGI": "22.8 µM"}

Please turn your attention to the following entry.
stdin: Find TGI (HL-60(TB) leukemia) for the entry NC(Cc1ccc(S(=O)(=O)O)cc1)C(=O)NC(CCCCNC(=O)NCCCCC(NC(=O)C(N)Cc1ccc(S(=O)(=O)O)cc1)C(=O)NC(Cc1ccc(S(=O)(=O)O)cc1)C(=O)O)C(=O)NC(Cc1ccc(S(=O)(=O)O)cc1)C(=O)O (stereo not given)
stdout: > 100 µM

---

System: KM20L2 colon
Assay: NCI tumour cell line growth inhibition, 48 h
Examples of compounds with documented TGI follow.
Report only the number, with the unit µM understood.

Some entries whose results are on file:
{"Compound": "Cc1ccccc1C(=O)c1c(O)c2c(c(O)c1Br)CCCC2", "Assayed system": "KM20L2 colon", "TGI [µM]": 41.4}
{"Compound": "COC(=O)[C@@]12C(=O)C=CC(=O)[C@@H]1C1C(=CC2COC(C)=O)O[C@@H]2OC3(CCCCC3)O[C@H]12 (stereo partly specified)", "Assayed system": "KM20L2 colon", "TGI [µM]": 31.8}

Please turn your attention to the following entry.
stdin: Item "Cc1c2cc[n+](C)cc2c(C)c2c1sc1ccccc12" has what recorded TGI?
stdout: 31.8

---

Examples of compounds with documented TGI follow.
System: SK-MEL-2 melanoma
Assay: NCI tumour cell line growth inhibition, 48 h
*1 amine or outer side, *2 acyl side, *3 side chain or, on linkers, in order; H or OH if unused. Where a SMILES comes first, the peptide text is derived from it. [ ]: non-standard residue; d: D form. The star is where a group is joined. X31 = CC(=O)N(C)SCC(N[*:1])C(=O)[*:2]; X47 = CC(=O)N(C)SCC(N*)/C(O)=N\O; Cbz = O=C(OCc1ccccc1)*; Bn = c1ccc(C*)cc1; For = O=C*

Some entries whose results are on file:
{"Compound": "N=C(N)c1ccc(OCc2cccc(COc3ccc(C(=N)N)cc3)c2)cc1", "Assayed system": "SK-MEL-2 melanoma", "TGI": "> 100 µM"}
{"Compound": "COc1ccc(/C=C2\\CCCC(CN(C)C)C2=O)cc1 (stereo not drawn)", "Assayed system": "SK-MEL-2 melanoma", "TGI": "11 µM"}
{"Compound": "OC1[C@H]([C@H]2CCCC[C@@H]2O)CCC[C@@H]1[C@@H]1CCCC[C@H]1O (stereo partly drawn)", "Assayed system": "SK-MEL-2 melanoma", "TGI": "> 100 µM"}

stdin: Item "CCc1ccc(N=Cc2cc(OC)c(OC)c(OC)c2)cc1" has what recorded TGI?
stdout: > 100 µM

stdin: Item COc1cccc(C2c3cc4c(cc3OC(C)(N3CCCC3)C2C)OCO4)c1OC (stereo not drawn) has what recorded TGI?
stdout: 27 µM

stdin: Item COC(=O)CCc1cc(OC)c(O)c(C(Cc2ccc(OC)c(OC)c2)C(=O)OC)c1 (stereo not drawn) has what recorded TGI?
stdout: > 100 µM

stdin: Item CCOC(=O)C1(C(N)=O)C(=O)c2ccncc2C1=O (stereo not drawn) has what recorded TGI?
stdout: > 100 µM

stdin: Item "CC1(C)CC(=O)C(CCC(=O)/C=C/c2ccccc2)C(=O)C1" has what recorded TGI?
stdout: > 100 µM

stdin: Item CC(NS(=O)(=O)c1ccc([N+](=O)[O-])cc1)C(=O)O (stereo not drawn) has what recorded TGI?
stdout: > 100 µM

stdin: Item COc1ccc(/C=C2\CCC(C)C3=C(c4ccc(OC)c(OC)c4)C(C#N)=C(N)OC32)cc1OC (stereo not drawn) has what recorded TGI?
stdout: 5.63 µM

stdin: Item "CCN(CC)CCOCC[C@H]1CC[C@H]2[C@@H]3[C@H](C)Cc4cc(OS(N)(=O)=O)ccc4[C@H]3CC[C@]12C" has what recorded TGI?
stdout: 4.45 µM

stdin: Item CC(=O)N(C)SCC(NC(=O)C(Cc1ccccc1)NC(=O)OCc1ccccc1)C(=O)NC(Cc1ccccc1)C(=O)NC(Cc1cn(C=O)c2ccccc12)C(=O)NC(CCCCNC(=O)OCc1ccccc1)C(=O)NC(C(=O)NC(CSN(C)C(C)=O)/C(O)=N\O)C(C)OCc1ccccc1 (stereo not drawn) (Cbz-F[X31]FW(For)K(Cbz)T(Bn)-X47; configuration not given here) has what recorded TGI?
stdout: > 100 µM

stdin: Item CN(C)CCOc1ccc2[nH]c(C(=O)N3CC(CCl)c4c3cc(N)c3ccccc43)cc2c1 (stereo not drawn) has what recorded TGI?
stdout: < 0.01 µM

stdin: Item CCCCCCCC1C(C)c2c([nH]c3ccccc23)C2C(=O)N(c3ccc(OC)cc3)C(=O)C21 (stereo not drawn) has what recorded TGI?
stdout: > 10 µM

stdin: Item "COc1cc2c[n+](C)c3c4cc(OC)c(OC)cc4c(OC)cc3c2cc1OC" has what recorded TGI?
stdout: > 86 µM

stdin: Item "CC[C@]12CCCN3CCc4c(n(c5ccccc45)C(=O)C1)[C@@H]32" has what recorded TGI?
stdout: > 100 µM

stdin: Item "Cc1ccc(S(=O)(=O)N2CCCN(S(=O)(=O)c3ccc(C)cc3)CCN(S(=O)(=O)c3ccc(C)cc3)CCCSCC2)cc1" has what recorded TGI?
stdout: > 100 µM

stdin: Item Clc1ccc(CSC(Cn2ccnc2)c2ccc(Cl)cc2Cl)cc1 (stereo not drawn) has what recorded TGI?
stdout: 3 µM
